Protein target, amino acids: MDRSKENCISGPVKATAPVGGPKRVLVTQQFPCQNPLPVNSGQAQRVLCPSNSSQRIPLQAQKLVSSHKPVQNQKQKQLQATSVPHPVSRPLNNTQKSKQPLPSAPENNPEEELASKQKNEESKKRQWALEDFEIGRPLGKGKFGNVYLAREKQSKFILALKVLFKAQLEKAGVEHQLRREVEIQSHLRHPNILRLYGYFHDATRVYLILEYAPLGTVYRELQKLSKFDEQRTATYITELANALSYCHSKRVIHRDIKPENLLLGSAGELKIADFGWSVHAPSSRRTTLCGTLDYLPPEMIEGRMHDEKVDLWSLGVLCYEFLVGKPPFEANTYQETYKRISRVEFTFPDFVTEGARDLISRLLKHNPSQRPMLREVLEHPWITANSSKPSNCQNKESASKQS
metricName: IC50 (nM)

itemsmiles=CN1CCN(c2ccc(C(=O)Nc3n[nH]c4ccc(S(=O)(=O)c5ccccc5)cc34)c(NC(=O)[C@@H]3CCCO3)c2)CC1 metricname=IC50 endpointresult=19
